Recorded values, source PubChem BioAssay AID463173.

# Tested on: Wild type
# method: S. aureus survival, RN4220 and DeltatarO strains – OD600, teichoic acid synthesis inhibitors, primary screen (AID 463173)
# test-parameters: S. aureus RN4220 wild type/DeltatarO growth, OD600, 18 h, hits give low values, screened at 18.75 µg/mL (by protocol)
The campaign covered roughly 52,000 compounds. About 1,700 (3.3%) were called active. This is one part of a sample in which actives are shown more often than they occur.
just bin them by survival: lower level: < 70%; middle level: ≥ 70% and < 80%; upper level: ≥ 80%

compound	assayed-system	class-label
COc1ccc(CC(=O)Nc2sc3c(c2C(=O)Nc2ccc(C)cc2)CCCCC3)cc1	Wild type	upper level

[ask] GET /class?item= "Cc1cc(-c2nc3ccccc3s2)ccc1NC(=O)c1cc(Cl)ccc1Cl"
[reply] upper level

[ask] GET /class?item= COc1ccc(C2CC(=O)c3cc(-c4nc(-c5cccc(Cl)c5)cs4)c(=O)[nH]c3C2)cc1 (stereo not given)
[reply] lower level

[ask] GET /class?item= "Cc1ccc(NC(=O)c2c(NC(=O)C(F)(F)F)sc3c2CCCCC3)cc1"
[reply] lower level

[ask] GET /class?item= CC(C)c1ccc(NC(=O)c2ccc(CN3CC(=O)N4CCCCC4C3=O)cc2)cc1 (stereo not given)
[reply] upper level

[ask] GET /class?item= Cc1ccc(NC(=O)c2ccc(CN3CC(=O)N4CCCCC4C3=O)cc2)cc1C (stereo not given)
[reply] middle level

[ask] GET /class?item= "O=C(COc1ccccc1)Nc1c(C(=O)N2CCN(c3ccc(F)cc3)CC2)oc2ccccc12"
[reply] middle level

[ask] GET /class?item= "COc1ccc(NC(=O)c2c(NC(=O)C(F)(F)F)sc3c2CCCCC3)cc1"
[reply] lower level

----------
# System: Wild type
# method: S. aureus survival, RN4220 and DeltatarO strains – OD600, teichoic acid synthesis inhibitors, primary screen (AID 463173)
# test-parameters: S. aureus RN4220 wild type/DeltatarO growth, OD600, 18 h, hits give low values, screened at 18.75 µg/mL (by protocol)
Hit rate of the full screen: of about 52,000 compounds, about 1,700 (3.3%) were called active. The sample holds actives, similar compounds and a random draw of the others, so the mix is not that of the screen.
Mark criterion met only for survival values smaller than 80%; exact matches and larger values are criterion not met.

smiles-input	class-label
CC(C)(C)c1ccc(C(=O)NC2CCNCC2)cc1	criterion not met
CCOC(=O)c1scc(-c2ccc(C)cc2)c1S(=O)(=O)Nc1cc(Cl)ccc1OC	criterion met
CCOC(=O)c1scc(-c2ccc(C)cc2)c1S(=O)(=O)Nc1cc(OC)ccc1OC	criterion met

[ask] Could you please tell me whether survival recorded for "CCOC(=O)c1scc(-c2ccc(C)cc2)c1S(=O)(=O)Nc1ccc(OC)c(Cl)c1" is less than 80%?
[reply] criterion not met

[ask] Could you please tell me whether survival recorded for "CCOC(=O)c1c(C)[nH]c(C)c1S(=O)(=O)NCC(=O)Nc1cc(C)ccc1OC" is less than 80%?
[reply] criterion met

----------
The following compounds are listed with their measured survival values.
# System: Wild type
# method: S. aureus survival, RN4220 and DeltatarO strains – OD600, teichoic acid synthesis inhibitors, primary screen (AID 463173)
# test-parameters: S. aureus RN4220 wild type/DeltatarO growth, OD600, 18 h, hits give low values, screened at 18.75 µg/mL (by protocol)
About 1,700 (3.3%) of roughly 52,000 compounds were called active. Many of the other results were omitted from the sample, so actives are more common in it than they were.
Write it as a number; the unit % goes unstated.

Recorded survival, per entry:
compound	survival, %
Cc1ccc(C)c(Nc2nc3nonc3nc2Nc2cccc(C)c2C)c1	4
CC1=C(C(=O)OCC2CCCCC2)C(c2ccc(Cl)cc2Cl)CC(=O)N1 (configuration not stated)	82
CCc1cc(=O)[nH]c(SCc2nc(-c3ccccc3)no2)n1	87
Cc1ccccc1-c1noc(CSc2nc(-c3ccc(F)cc3)cc(=O)[nH]2)n1	10
CCOC(=O)c1ccc(Nc2nc3nonc3nc2NCc2ccco2)cc1	35

The measured survival associated with "CCOc1ccccc1NC(=O)CCn1nc(C)c(S(=O)(=O)N2CCCCC2)c1C" reads 76

The measured survival associated with Cc1ccc(N2CC(NC(=O)/C=C\c3ccc4c(c3)OCO4)CC2=O)cc1C (configuration not stated) reads 130
